Biological target: MAT2A homodimer (Homo sapiens)
Construct: inferred from Ni sepharose purification and imidazole elution
Sequence (P31153 whole entry): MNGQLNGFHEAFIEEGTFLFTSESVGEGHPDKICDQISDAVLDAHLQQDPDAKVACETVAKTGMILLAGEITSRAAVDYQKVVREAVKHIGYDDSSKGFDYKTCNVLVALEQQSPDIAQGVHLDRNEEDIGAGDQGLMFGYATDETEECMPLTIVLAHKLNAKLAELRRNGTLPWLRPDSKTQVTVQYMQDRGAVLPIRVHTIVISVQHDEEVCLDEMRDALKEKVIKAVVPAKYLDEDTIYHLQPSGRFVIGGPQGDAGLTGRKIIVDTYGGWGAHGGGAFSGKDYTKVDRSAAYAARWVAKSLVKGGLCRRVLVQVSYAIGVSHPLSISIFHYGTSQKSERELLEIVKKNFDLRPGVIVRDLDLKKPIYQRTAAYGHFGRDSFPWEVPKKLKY
Assay: MAT2A biochemical assay (phosphate release, PiColorLock Gold)
Conditions: recombinant MAT2A homodimer, 60 min pre-incubation, 25° C.; read-out: Enzyme Inhibition
pIC50: −log10 of the molar value.
MEASUREMENT_KIND: pIC50

- SMI: "Cn1cc2cc(-n3nc4ccc(OCC(F)F)nc4c(-c4ccc5[nH]ccc5c4)c3=O)ccc2n1"
  DATA_VALUE: "> 7.00"
- SMI: "CCCc1ccc2nn(-c3ccc4nn(C)cc4c3)c(=O)c(-c3ccc(OC(F)F)cc3)c2n1"
  DATA_VALUE: "> 7.00"
- SMI: "CNc1ccc(-n2nc3ccc(OCC(F)F)nc3c(-c3ccc(OC(F)F)cc3)c2=O)cc1"
  DATA_VALUE: "6.00 to 7.00"

Shifting focus to the compound that follows.
Query pIC50 for [2H]C([2H])([2H])n1cc2cc(-n3nc4ccc(NC([2H])([2H])C([2H])([2H])[2H])nc4c(-c4ccc(C)nc4)c3=O)ccc2n1
> 7.00
